assay: Drug metabolism in mouse liver microsomes assessed as compound lability; assay type: ADME, Microsome; conditions: microsomes
Listing: Drug metabolism of selected compounds
Dear colleague, please return just the value in %, with no unit written.

Record excerpt, results attached:
compound="CC1Cc2c(Br)cccc2N1C(=O)Cc1nc(N2CCOCC2)sc1C(N)=O (single isomer, unassigned; enantiomer 2)" recorded_result=67
compound="CC1Cc2c(Br)cccc2N1C(=O)Cc1nc(N2CCOCC2)sc1C(=O)O (single isomer, unassigned; enantiomer 1)" recorded_result=17
compound="CC1Cc2c(Br)cccc2N1C(=O)Cc1nc(N2CCOCC2)sc1C(N)=O (single isomer, unassigned; (-))" recorded_result=89

Let's switch to this compound now.
So, CC1Cc2c(Br)cccc2N1C(=O)Cc1nc(N2CCOCC2)sc1C(=O)O (single isomer, unassigned; enantiomer 2) ? Its Drug metabolism was 7

----------
target: Phosphatidylinositol 4,5-bisphosphate 3-kinase catalytic subunit beta isoform (Homo sapiens, UniProt P42338); assay: Inhibition of PI3Kbeta in human PTEN-deficient PC3 cells assessed as Akt phosphorylation at S473; assay type: cell-based, PC-3
Sequence (P42338 whole entry, canonical isoform): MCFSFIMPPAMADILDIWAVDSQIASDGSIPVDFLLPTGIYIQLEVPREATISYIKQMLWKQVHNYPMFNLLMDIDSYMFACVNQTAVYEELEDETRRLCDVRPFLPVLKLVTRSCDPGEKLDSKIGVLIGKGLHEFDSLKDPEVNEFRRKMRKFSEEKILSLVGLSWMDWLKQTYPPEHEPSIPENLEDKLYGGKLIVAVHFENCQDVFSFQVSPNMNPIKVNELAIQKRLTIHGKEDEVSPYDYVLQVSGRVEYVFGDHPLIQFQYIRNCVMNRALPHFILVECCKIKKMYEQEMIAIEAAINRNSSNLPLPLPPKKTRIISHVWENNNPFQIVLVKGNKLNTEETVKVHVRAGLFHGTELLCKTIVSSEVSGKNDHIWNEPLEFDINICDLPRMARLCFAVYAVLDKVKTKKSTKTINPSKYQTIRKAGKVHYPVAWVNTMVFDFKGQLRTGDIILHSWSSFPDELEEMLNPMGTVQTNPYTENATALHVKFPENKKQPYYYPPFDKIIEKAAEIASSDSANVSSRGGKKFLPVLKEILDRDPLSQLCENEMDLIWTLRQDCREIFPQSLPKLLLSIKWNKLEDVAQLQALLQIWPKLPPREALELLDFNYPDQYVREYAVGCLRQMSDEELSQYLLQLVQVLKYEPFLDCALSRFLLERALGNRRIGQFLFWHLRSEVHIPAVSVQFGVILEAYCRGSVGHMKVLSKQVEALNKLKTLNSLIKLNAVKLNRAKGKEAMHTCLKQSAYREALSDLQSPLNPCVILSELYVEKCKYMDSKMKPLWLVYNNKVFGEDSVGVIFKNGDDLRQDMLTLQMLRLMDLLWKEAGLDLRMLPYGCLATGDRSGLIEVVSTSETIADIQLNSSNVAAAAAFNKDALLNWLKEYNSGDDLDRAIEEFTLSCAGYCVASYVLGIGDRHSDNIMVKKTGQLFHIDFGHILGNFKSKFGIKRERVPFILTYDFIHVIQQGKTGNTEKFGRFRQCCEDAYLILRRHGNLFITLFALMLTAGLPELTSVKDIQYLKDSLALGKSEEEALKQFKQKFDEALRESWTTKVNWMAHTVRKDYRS
QUANTITY: IC50 (nM)
Respond with the bare value in nM.

compound=O=C(O)c1sc(N2CCOCC2)nc1CC(=O)N1CCc2c(Br)cccc21 recorded_result=1780

Per the record, `NC(=O)c1sc(N2CCOCC2)nc1CC(=O)N1CCc2c(F)cccc21` has IC50 of 38

So for `O=C(O)c1sc(N2CCOCC2)nc1CC(=O)N1CCc2cc(Br)ccc21` , the logged IC50 turned out to be 3000

Please fill in: IC50 reported for CC1Cc2cc(F)ccc2N1C(=O)Cc1nc(N2CCOCC2)sc1C(N)=O (stereo not given) = 14

Note to self: IC50 recorded for `NC(=O)c1sc(N2CCOCC2)nc1CC(=O)N1CCc2cc(Cl)ccc21` was 110

# compound CC1Cc2c(Br)cccc2N1C(=O)Cc1nc(N2CCOCC2)sc1C(=O)O (single isomer, unassigned; enantiomer 1) ; its IC50 = 140

Just so you know, measured IC50 for `NC(=O)c1sc(N2CCOCC2)nc1CC(=O)N1CCc2c(Cl)cccc21` came out at 122

Value of measured IC50 for the entry CC1CN(C(=O)Cc2nc(N3CCOCC3)sc2C(N)=O)c2ccccc21 (racemic) : 75

Input `O=C(O)c1sc(N2CCOCC2)nc1CC(=O)N1CCc2c(Cl)cccc21` . Output IC50: 2000

Please fill in: IC50 reported for CC1Cc2c(Br)cccc2N1C(=O)Cc1nc(N2CCOCC2)sc1C(N)=O (single isomer, unassigned; (-)) = 3

----------
assay: Plasma concentration in SCID mouse harboring human PTEN-deficient PC3 cells at 100 mg/kg, po after 16 hrs; assay type: ADME, organism-based, PC-3; parameters: dose 100 mg/kg, route oral
QUANTITY: concentration at 16 h (nM)
Record the value in nM, omitting the unit from your answer.

Record `NC(=O)c1sc(N2CCOCC2)nc1CC(=O)N1CCc2cc(F)ccc21` , field concentration at 16 h: 4

----------
target: Phosphatidylinositol 4,5-bisphosphate 3-kinase catalytic subunit beta isoform (Homo sapiens, UniProt P42338); assay: Inhibition of human PI3Kbeta after 15 mins
pIC50: −log10 of the molar value.
Decide by pIC50: equal to or exceeding 7 means met, less means not met.

Solved cases (5 shown):
compound=O=C(O)c1sc(N2CCOCC2)nc1CC(=O)N1CCc2cc(Br)ccc21 label_class="not met"
compound=O=C(O)c1sc(N2CCOCC2)nc1CC(=O)N1CCc2c(Br)cccc21 label_class=met
compound=NC(=O)c1sc(N2CCOCC2)nc1CC(=O)N1CCc2c(Br)cccc21 label_class=met
compound="CC1Cc2ccccc2N1C(=O)Cc1nc(N2CCOCC2)sc1C(=O)O (racemic)" label_class="not met"
compound=O=C(O)c1sc(N2CCOCC2)nc1CC(=O)N1CCc2cc(F)ccc21 label_class=met

Problem: Could you tell me if the measured pIC50 of CC1Cc2cc(F)ccc2N1C(=O)Cc1nc(N2CCOCC2)sc1C(=O)O (stereo not given) reaches 7 or more?
Solution: met

Problem: Is it the case that `NC(=O)c1sc(N2CCOCC2)nc1CC(=O)N1CCc2cc(Br)ccc21` has pIC50 reaching or exceeding 7?
Solution: not met

Problem: Hi, just wondering whether `O=C(O)c1sc(N2CCOCC2)nc1CC(=O)N1CCc2c(Cl)cccc21` shows pIC50 of 7 or higher.
Solution: met

Problem: # bool: pIC50 of `NC(=O)c1sc(N2CCOCC2)nc1CC(=O)N1CCc2cc(F)ccc21` >= 7
Solution: met

Problem: Determine whether measured pIC50 meets or exceeds 7 for CC1Cc2c(Br)cccc2N1C(=O)Cc1nc(N2CCOCC2)sc1C(N)=O (single isomer, unassigned; enantiomer 2)
Solution: met
